- PROCEDURE_DETAILS: NCI Yeast Anticancer Drug Screen. Data for the mec2-1 strain (AID 157)
- CONDITION_CONTEXT: S. cerevisiae mec2-1 strain, at 5.0 µM (retest, dose inferred, filed as 0.5), active compounds read high
This is part of a sample that, as a whole, favours compounds with a hit. Of some 79,000 tested, about 15% had one in any assay.
READOUT_TYPE: growth inhibition (%)

compound="COc1cc2c(cc1OC)C(=O)C(C)(c1ccccc1)NC2 (stereo not drawn)" quantitative_result=9
compound="CC(C)(C)C(=O)OC(N)/C=C/c1ccccc1 (stereo not drawn)" quantitative_result=15
compound="COc1ccccc1NC(c1ccccc1)c1ccc2cccnc2c1O (stereo not drawn)" quantitative_result=3
compound=CCOc1ccccc1C(=O)Nc1cc(C)nn1-c1ccccc1 quantitative_result=7
compound=COc1ccc2c(c1)CCn1c(C)c(COC(=O)NC(C)C)c(COC(=O)NC(C)C)c1-2 quantitative_result=0
compound=CCCCOC(=O)c1cnc[nH]c1=O quantitative_result=2
compound="CC(=O)SC(C[N+](=O)[O-])c1ccc2c(c1)OCO2 (stereo not drawn)" quantitative_result=69
compound="COc1ccc2c3c(ccc2c1)NC(C(=O)O)CC3 (stereo not drawn)" quantitative_result=-11

###

- PROCEDURE_DETAILS: NCI Yeast Anticancer Drug Screen. Data for the cln2 rad14 strain (AID 165);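 also: 0% = growth equal to vehicle treated cultures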
- CONDITION_CONTEXT: S. cerevisiae cln2 rad14 strain, at 50.0 µM
The panel holds about 79,000 compounds, 15% with a hit somewhere; the sample as a whole holds those more often. The source made the active and inactive calls. No stated cut-off is given here; in the data, active means growth inhibition above about 70%; inactive means the rest.
Classes used: 1 = active, 0 = inactive

molecule=FC(F)(F)c1ccc(Nc2ccc(C(F)(F)F)cc2)cc1 label=1
molecule=CC(C)S(=O)(=O)ON1C(=O)c2ccc(N(C)C)cc2C1=O label=1
molecule=CC(/C=C/C(O)=C1/C(=O)CNC1=O)=C\[C@@H](C)[C@H]1O[C@@]2(C)O[C@H](C(=O)[C@@H]3O[C@@]32C)[C@@H]1C label=1
molecule=O=C1C(C=NC(=S)c2ccccc2)=C(O)c2ccccc21 label=0
molecule=CCNc1nc(C(F)(F)F)nc2nc[nH]c12 label=1
molecule=CCOc1ccnc2c(C)c3c([nH]c4ccccc43)c(C)c12 label=1
molecule="CN(Cc1ccccc1)CC(O)c1cc(-c2ccc(Cl)cc2)nc2ccccc12 (configuration not stated)" label=1
molecule=Cc1ccc(OS(=O)(=O)c2ccc(Br)cc2)cc1 label=0
molecule=C1=C([P+](c2ccccc2)(c2ccccc2)c2ccccc2)CCCC1 label=1
molecule=O=C(Nc1ccccc1)C(F)(F)C(F)(F)C(F)(F)F label=0
molecule=CCCNC(=O)c1ccccc1 label=1
molecule=CCCCCCCN=C(N)c1ccc(C(=O)OC2CCCCC2)cc1 label=1
molecule=Cc1ccc2c(c1C)-c1c(ccc(C)c1C)C(=O)C2=O label=1
molecule="COC(=O)[C@]1(C)CCCC2(C)C3=C(CCC21)CC1(CC3)SCCS1 (some centres not stated)" label=1
molecule=C=C1C(=O)[C@@]23CC[C@H]4[C@@](C)(CCC[C@@]4(C)C(=O)OC)[C@@H]2CC[C@]1(O)C3 label=1
molecule="Clc1ccc(C2=C(c3ccccc3)C(c3ccc(Cl)cc3)N3C(=N[C@H]4CCCC[C@@H]43)N2)cc1 (some centres not stated)" label=1
molecule=O=S(=O)(c1ccc(NC(=S)NCc2ccncc2)cc1)N1CCCCC1 label=0
molecule=O=C(CNC(=O)OCc1ccccc1)NNc1ccccc1Cl label=1
molecule=COc1ccc(/C(Cl)=C(/c2ccc(O)cc2)c2ccc(OCCN(C)C)cc2)cc1 label=1
molecule=CN(C)CCN(C)N=Nc1c(-c2ccc(Cl)cc2)n[nH]c1C(F)(F)F label=1
molecule="COc1cccc(N2CCN(CC(O)COc3cc4c(c5c3CCCC5)CCCC4)CC2)c1 (configuration not stated)" label=0
molecule=Cc1ccc(S)c(S)c1 label=1

###

Attribute: growth inhibition
- PROCEDURE_DETAILS: NCI Yeast Anticancer Drug Screen. Data for the mec2-1 strain (AID 157)
- CONDITION_CONTEXT: S. cerevisiae mec2-1 strain, at 50.0 µM (retest, dose inferred, filed as 5.0), active compounds read high
This is part of a sample that, as a whole, favours compounds with a hit. Of some 79,000 tested, about 15% had one in any assay. Activity calls are given as the source filed them. Rule as the data show it: active = growth inhibition above about 70%; inactive = the rest.
READOUT_TYPE: growth inhibition

compound=CC[C@]1(O)C[C@H]2[C@@H]3CCc4cc(OC)ccc4[C@H]3CC[C@]2(C)[C@H]1O readout_type="growth inhibition" result="98% (active)"
compound="C=C1C2Oc3ccccc3C1N(c1ccccc1)O2 (stereo unspecified)" readout_type="growth inhibition" result="35% (inactive)"
compound=NC(N)=Nc1ccc(C(=O)Oc2c(Cl)cc([N+](=O)[O-])cc2Cl)cc1 readout_type="growth inhibition" result="28% (inactive)"
compound="N#CC(C(=O)C(=O)Nc1cccc(C(F)(F)F)c1)c1ccccc1 (stereo unspecified)" readout_type="growth inhibition" result="76% (active)"
compound=N#CNc1nc(N)c(-c2ccc(Cl)cc2)c(C(=O)Nc2ccc(Cl)c(Cl)c2)n1 readout_type="growth inhibition" result="-2% (inactive)"
compound="COc1cc(C(c2cc3c(cc2O)OCO3)N2CCN(C(c3ccc(O)c(OC)c3)c3cc4c(cc3O)OCO4)CC2)ccc1O (stereo unspecified)" readout_type="growth inhibition" result="99% (active)"
compound=O=C(Nc1ccc(C2=NCCN2)cc1)c1ccc(C(=O)Nc2ccc(C3=NCCN3)cc2)c(Cl)c1 readout_type="growth inhibition" result="98% (active)"
compound=Nc1ccc([N+](=O)[O-])cc1Nc1c2ccccc2nc2ccccc12 readout_type="growth inhibition" result="5% (inactive)"
compound=CC(C)/C(Cl)=N\OC(=O)Nc1cccc(F)c1 readout_type="growth inhibition" result="45% (inactive)"
compound=CCN(CC)CCNc1c(OC)cc(C)c2sc3ccccc3c(=O)c12 readout_type="growth inhibition" result="-1% (inactive)"
compound=COc1ccc(OC)c2c(=S)c3ccccc3[nH]c12 readout_type="growth inhibition" result="44% (inactive)"
compound="O=C1C2=C(C(=O)c3cnccc31)C1C=CC2CC1 (stereo unspecified)" readout_type="growth inhibition" result="69% (inactive)"
compound=O=C(Oc1cc(Cl)c(Cl)cc1Cl)c1ccco1 readout_type="growth inhibition" result="5% (inactive)"
compound=Nc1nnc2nc(C(C(=O)c3ccccc3Cl)c3nc4nnc(N)n4[nH]c3=O)c(=O)[nH]n12 readout_type="growth inhibition" result="0% (inactive)"
compound=O=C1OCC/C1=C1/CCOC1 readout_type="growth inhibition" result="98% (active)"
compound=Clc1ccc(C2=CCCc3ccccc32)cc1 readout_type="growth inhibition" result="-4% (inactive)"

###

- PROCEDURE_DETAILS: NCI Yeast Anticancer Drug Screen. Data for the cln2 rad14 strain (AID 165);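 also: 0% = growth equal to vehicle treated cultures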
- CONDITION_CONTEXT: S. cerevisiae cln2 rad14 strain, at 5.0 µM (retest, dose inferred, filed as 0.5), active compounds read high
The panel holds about 79,000 compounds, 15% with a hit somewhere; the sample as a whole holds those more often. Where a SMILES comes first, the peptide text is derived from it. The star is where a group is joined. OSu = O=C1CCC(=O)N1O*; OBn = c1ccc(CO*)cc1; Bn = c1ccc(C*)cc1
READOUT_TYPE: growth inhibition (%)

compound="COc1ccc(C2SC(C)C(=O)N2c2nc(-c3nc(-c4ccc(Cl)cc4)cs3)cs2)cc1 (stereo not drawn)" quantitative_result=4
compound=CCCCCCCCC1N(C)CCCN1C quantitative_result=-56
compound=CC(C)NCCCNc1nc(NCCCNC(C)C)c2nc(-c3ccccc3)c(-c3ccccc3)nc2n1 quantitative_result=-3
compound="CC(=O)Oc1ccc2c(c1)CCC1C2CCC2(C)C1CCC21CO1 (stereo not drawn)" quantitative_result=1
compound=O=c1oc2c(-c3ccccc3)cccc2c(O)c1-c1ccccc1 quantitative_result=0
compound=CCCCCN(CCCCC)C(=S)Nc1ccccc1 quantitative_result=-22
compound=COc1ccc2nc(N/N=C/c3ccccn3)cc(C)c2c1 quantitative_result=3
compound=Clc1ccccc1/C=C/c1ccnc2ccccc12 quantitative_result=-19
compound=C/C(=N/NC(N)=O)c1ccc(Cl)s1 quantitative_result=-8
compound=Cc1csc2c1C(=O)c1ccsc1C2=O quantitative_result=31
compound="CCCCCC(C)(O)C#CC(C)(O)CCCCC (stereo not drawn)" quantitative_result=5
compound=O=Cc1c(Cn2ccnc2)c2cc([N+](=O)[O-])ccc2n1Cc1ccccc1 quantitative_result=-2
compound=COc1ccc2c(C)cc(N/N=C/c3cccc(C)n3)nc2c1 quantitative_result=5
compound=CCCOC1=C(Cl)C(=O)c2cccc([N+](=O)[O-])c2C1=O quantitative_result=20
compound=O=C(Sc1c(-c2ccccc2)c(=O)n(-c2ccccc2)c(=S)n1-c1ccccc1)c1cccs1 quantitative_result=25
compound=CCN(C(C)=O)c1cnc(/C=N/NC(N)=S)c2ccccc12 quantitative_result=-13
compound=O=c1ccc2c(COc3ccc(Cl)cc3Cl)c3ccc(O)cc3oc-2c1 quantitative_result=9
compound="CCN(CCO)CC1OC(OC)C2OC(C)(C)OC12 (stereo not drawn)" quantitative_result=-3
compound="NNC(=S)N/N=C(\\CC1OC(=O)c2ccccc21)c1ccccc1O (stereo not drawn)" quantitative_result=11
compound=CN(C)c1ccc(C2(Cl)c3ccccc3N(Cc3ccccc3)c3ccccc32)cc1 quantitative_result=99
compound=O=C(NCCl)Nc1ccccc1 quantitative_result=1
compound="CC(C)CC(NC(=O)C(N)CCC(=O)OCc1ccccc1)C(=O)NC(COCc1ccccc1)C(=O)NC(Cc1ccccc1)C(=O)ON1C(=O)CCC1=O (stereo not drawn) (H-E(OBn)LS(Bn)F-OSu; configuration not given here)" quantitative_result=41
compound=COc1cc(Nc2ccc(Oc3ccc(O)cc3)cc2)c2ncccc2c1 quantitative_result=2
compound=Nc1nc(-c2ccccc2)cc(-c2ccccc2O)n1 quantitative_result=13
compound=CN(C)CCN(C)N=Nc1c(-c2ccc(Cl)cc2)n[nH]c1C(F)(F)F quantitative_result=99
compound="Clc1ccc(C2=Nc3ccccc3SC(c3ccc(Cl)c(Cl)c3)C2)c(Cl)c1 (stereo not drawn)" quantitative_result=10
compound=CN(C)/N=N/c1nc(Cc2ccccc2)[nH]c1C(N)=O quantitative_result=29
compound=CN(C(=O)C(Cl)Cl)c1ccc(-c2csc(-c3ccccc3)n2)cc1 quantitative_result=-2
compound=Nc1ccc(-c2cccc(-c3ccccc3)c2)cc1 quantitative_result=-40
compound="CC(=O)N1C=C2CCC3c4ccccc4NC3C2CC1 (stereo not drawn)" quantitative_result=-51
compound=FC(F)(F)c1[nH]nc(-c2cccs2)c1N=NN1CCOCC1 quantitative_result=99
compound=CSc1cc(Cl)c(C)cc1S(=O)(=O)NC(=O)Nc1ccc(Cl)cc1 quantitative_result=45
compound="CCCCCCCCCCCCCCCCCCOS(=O)(=O)O (tested in a mixture with another compound)" quantitative_result=-30
compound=CC(=O)N1C/C(=C\c2ccccc2)C(=O)/C(=C/c2ccccc2)C1 quantitative_result=35
compound=CC1CCN(SSc2nc3ccccc3s2)CC1 quantitative_result=44
compound=CCOc1ccc2nc(NC(=O)c3c/c(=N\NC(=O)C[N+](C)(C)C)c4ccc(O)cc4o3)sc2c1 quantitative_result=13
compound=O=C(CCl)OCC(=O)c1ccc(-c2ccccc2)cc1 quantitative_result=28
compound="CC([C@H]1CCC2C3CCC4CC5(CC[C@]4(C)C3CC[C@@]21C)c1ccccc1C(=O)N5C)N(C)C (stereo partly drawn)" quantitative_result=14
